System: NCI-H441
Experiment: relative viability (nuclei count vs DMSO), 5 days (fraction); higher = more cells survive
Details: first compound 0.04 µM
Lab note: anything with relative viability below 0.9 is marked satisfied; values at 0.9 or higher are marked not satisfied.

Q. Please indicate whether the reported relative viability of COc1cc(N2CCC(C(N)=O)CC2)ccc1Nc1nc(N)c(Cl)c(Nc2ccccc2S(=O)(=O)C(C)C)n1 [HG-5-88-01] + C[C@]1(O)C[C@@H](c2nc(-c3ccc4ccc(-c5ccccc5)nc4c3)c3c(N)nccn32)C1 [Linsitinib] (partner 1 µM) is strictly below 0.9.
A. satisfied

Q. What would you report for C[C@@H]1CN(CC(=O)Nc2ccc3c(c2)Cc2cccc(-c4cc(=O)cc(N5CCOCC5)o4)c2S3)C[C@H](C)O1 + Nc1ncn([C@H]2C[C@H](O)[C@@H](CO)O2)c(=O)n1 [Decitabine] (partner 2 µM) ?
A. satisfied

Q. // repeat for COc1cc(N2CCC(C(N)=O)CC2)ccc1Nc1nc(N)c(Cl)c(Nc2ccccc2S(=O)(=O)C(C)C)n1 [HG-5-88-01] + CC(=O)Nc1cccc(-n2c(=O)n(C3CC3)c(=O)c3c(Nc4ccc(I)cc4F)n(C)c(=O)c(C)c32)c1 [Trametinib] (partner 0.02 µM) and report
A. satisfied

Q. Now the compound Clc1ccc(Nc2nnc(Cc3ccncc3)c3ccccc23)cc1 [Vatalanib] + C[C@@H](Oc1cc(-c2cnn(C3CCNCC3)c2)cnc1N)c1c(Cl)ccc(F)c1Cl [Crizotinib] (partner 1 µM)
A. satisfied

Q. Query Clc1ccc(Nc2nnc(Cc3ccncc3)c3ccccc23)cc1 [Vatalanib] + CC(=O)c1c(C)c2cnc(Nc3ccc(N4CCNCC4)cn3)nc2n(C2CCCC2)c1=O [Palbociclib] (partner 0.5 µM) next
A. satisfied

Q. Here is the next compound: C[C@@H]1CN(CC(=O)Nc2ccc3c(c2)Cc2cccc(-c4cc(=O)cc(N5CCOCC5)o4)c2S3)C[C@H](C)O1 + C[C@@H](Oc1cc(-c2cnn(C3CCNCC3)c2)cnc1N)c1c(Cl)ccc(F)c1Cl [Crizotinib] (partner 1 µM)
A. not satisfied
